// reported binding value (RU) per item
Target: T1, human proprotein convertase subtilisin/kexin type 9, his tagged antigen (Homo sapiens, UniProt Q8NBP7)
T1 construct: human PCSK9; also called hPCSK9; PCSK9; source: bought: Sinobiological, China, Cat# 29698-H08H
T1 sequence (Q8NBP7 31-692): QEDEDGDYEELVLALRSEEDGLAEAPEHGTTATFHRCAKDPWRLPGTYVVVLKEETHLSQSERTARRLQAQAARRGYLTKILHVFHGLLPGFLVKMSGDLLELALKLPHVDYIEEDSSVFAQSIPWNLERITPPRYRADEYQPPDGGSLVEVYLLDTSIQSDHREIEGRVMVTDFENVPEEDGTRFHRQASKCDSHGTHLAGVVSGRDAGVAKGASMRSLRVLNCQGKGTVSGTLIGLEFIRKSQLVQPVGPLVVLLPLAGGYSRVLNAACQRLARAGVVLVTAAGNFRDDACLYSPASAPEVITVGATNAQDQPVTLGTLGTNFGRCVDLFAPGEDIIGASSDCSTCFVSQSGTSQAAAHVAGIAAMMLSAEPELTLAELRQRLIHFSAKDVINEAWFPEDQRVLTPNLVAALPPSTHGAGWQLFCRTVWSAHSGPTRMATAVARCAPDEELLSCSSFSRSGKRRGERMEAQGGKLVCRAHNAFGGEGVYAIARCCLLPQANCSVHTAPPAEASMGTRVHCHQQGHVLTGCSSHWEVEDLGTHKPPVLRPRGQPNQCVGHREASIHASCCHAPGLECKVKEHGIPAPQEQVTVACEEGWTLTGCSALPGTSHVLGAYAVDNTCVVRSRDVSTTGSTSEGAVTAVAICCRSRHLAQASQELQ
Experiment: SPR; lysate kinetics screening; hPCSK9-his immobilised on CM5 chip (~18000 RU); supernatants of TES lysates of clones flowed over; 25 °C; binding 120 s, dissociation 140 s; binding value read at ~120 s, stability value at ~135 s; Biacore T200
Conditions: one partner purified
Reply with just the number (in RU).

| binder | binding value (RU) |
| --- | --- |
| VHH-G8 (VHH, llama anti-hPCSK9 VHH from an immune phage library; source: E. coli, supernatant of TES lysate (screening); E. coli induced by IPTG, and Pichia pastoris X33, purified (Histrap FF column)) VHH: DVQLVESGGGSVQAGGSLTLSCVVSGYRGQKICTGWFRQFPGMEREAVARILPRGPNTQYTDSVKGRFTISQDAAKNTVNLQMSSLKPKDTAMYYCAQGWGGASDWALQPRRYNYWGQGTQVTVSS | 132 |
| VHH-B11 (VHH, llama anti-hPCSK9 VHH from an immune phage library; 17 kDa on SDS-PAGE; also called monovalent VHH-B11; monovalency VHH-B11; source: E. coli, supernatant of TES lysate (screening); E. coli induced by IPTG, and Pichia pastoris X33, purified (Histrap FF column)) VHH: EVQLVESGGGSVQAGGSLRLSCTVSGYTYSSNCMGWFRQAPGKEHEGVASIYIGGGSTYYADSVKGRFTISQDNAKNTVYLQMNSLKPEDTAMYYCAVGCQGLVDFGYWDQGTQVTVSS | 409 |
| VHH-H12 (VHH, llama anti-hPCSK9 VHH from an immune phage library; source: E. coli, supernatant of TES lysate (screening); E. coli induced by IPTG, and Pichia pastoris X33, purified (Histrap FF column)) VHH: GGGLVQAGGSLRLSCAASRSTFSGYAMAWFRQAPGKEREFVACIEREIPGHPAWSGLTYYADSKKGRFTISRDNAKNTVYLQMNSLKPEDTAVYYCAAGLKYPAQKHYDYDYWGQGTQVTVPS | 272 |

Next item in the queue.
// lookup binding value (RU) for VHH-A6 (VHH, llama anti-hPCSK9 VHH from an immune phage library; source: E. coli, supernatant of TES lysate (screening); E. coli induced by IPTG, and Pichia pastoris X33, purified (Histrap FF column)) VHH: PGAAAGVGGGSVQAGGSLRLSCAASRYTDRTRCIAWFRQVPGKEREGVACLDRAGGQSAYADSAKGRFTVSQDNAGNTVYLQMDNLIPEDSAMYYCAAAGVGQWYTCLQKFIRDKRSFANWGQGTQVTVSS 166
